system-name: OR51E2 (Homo sapiens, UniProt Q9H255)
Construct: OR51E2 plasmid transiently transfected into Hana3A cells with CREB-luciferase reporter
Sequence (Q9H255 1-320): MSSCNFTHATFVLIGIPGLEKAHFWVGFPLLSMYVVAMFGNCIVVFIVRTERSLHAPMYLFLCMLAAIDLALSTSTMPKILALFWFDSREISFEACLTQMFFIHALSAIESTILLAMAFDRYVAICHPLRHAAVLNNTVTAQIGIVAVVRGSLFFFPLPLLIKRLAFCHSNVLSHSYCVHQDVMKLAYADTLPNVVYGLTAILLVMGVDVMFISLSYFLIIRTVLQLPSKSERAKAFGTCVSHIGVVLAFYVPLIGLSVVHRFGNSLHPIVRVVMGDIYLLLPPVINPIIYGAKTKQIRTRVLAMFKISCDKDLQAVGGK
experiment-description: cAMP CRE-luciferase reporter assay in Hana3A cells
Type: cell-based
setup-conditions: agonist, M10d medium, max conc. 10 mM, read-out: EC50 (potency) /
observation-type: pEC50
# reply with the number alone; pEC50 is -log10 of concentration in mol/L

For NC(N)=O [Urea] the compound record lists pEC50 as 7.64

The measured values listed here are drawn from paper PMC5985834.
